Hello, the source for this data is patent US20210040184A1, in case you need it.

- assayed-target: Clade C DU172.17 gp120 protein (HIV-1 Clade C, DU172.17)
- experiment-notes: BLI (Octet), IgG on anti-hIgG Fc sensor, gp120 analyte, 1:1 fit
For each of the binders below, state its fold (KD vs average of 4 runs of L1A2).
State the answer as a number, implicitly in fold.

Data request, read-out fold (KD vs average of 4 runs of L1A2), for NglycoSA (antibody, V domains shown) VH: ADLVQSGAVVKKPGDSVRISCEAQGYRFPDYIIHWIRRAPGQGPEWMGWMNPMGGQVNIPWKFQGRVSMTRDTSIETAFLDLRGLKSDDTAVYYCVRDRSNGAGKRFESSNWFLDLWGRGTAVTIQS VL: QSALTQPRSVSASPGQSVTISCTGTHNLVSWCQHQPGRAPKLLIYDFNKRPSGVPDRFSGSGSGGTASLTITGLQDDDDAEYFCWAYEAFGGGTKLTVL
0.72

Thanks! And Germ23 (antibody, V domains shown) VH: QVQLVQSGAEVKKPGASVKVSCEASGYRFPDYIIHWIRRAPGQGPEWMGWMNPMGGQVNIPWKFQGRVSMTRDTSIETAYMELRGLRSDDTAVYYCVRDRSNGSGKRFESSNWFLDLWGRGTLVTVSS VL: QSALTQPRSVSGSPGQSVTISCTGTHNLVSWCQHHPGKAPKLMIYDFNKRPSGVPDRFSGSGSGGTASLTISGLQAEDEAEYFCWAYEAFGGGTKLTVL ?
0.88
